Values from paper PMC4222603

- Target Under Test: IN strand transfer activity (Human immunodeficiency virus type 1 group M subtype B, UniProt P12497)
- Construct: loaded on a Superdex 200 16/600 PG column (for full length IN); made in house
- Method Notes: IN strand transfer ELISA assay
- Type: biochemical, HIV-1
- Protocol Conditions: inhibition plateau, concentrations up to 100 μM
Observed Property: IN ST plateau (%)
Give just the number in %; leave the unit off.

Some entries whose results are on file:
[[record]]
compound = "Cc1nc2c(c(-c3ccc4c(c3)CCCO4)c1C(OC(C)(C)C)C(=O)O)CCCC2 (stereo not shown) [Mut101]"
observed_property = "IN ST plateau (%)"
number = 66

[[record]]
compound = "Cc1nc2ccccc2c(C2CCCCC2)c1C(OC(C)(C)C)C(=O)O (stereo not shown) [Mut049]"
observed_property = "IN ST plateau (%)"
number = 56

[[record]]
compound = "CC(C)(C)OC(C(=O)O)C1=C(c2ccc3c(c2)CCCO3)c2ccccc2OC1 (stereo not shown) [Mut062]"
observed_property = "IN ST plateau (%)"
number = 73


Consider now this further compound.
Supply reported IN ST plateau (%) belonging to this compound: CC(C)(C)OC(C(=O)O)c1c(-c2ccc3c(c2)CCCO3)ccc2ccccc12 (stereo not shown) [Mut047] 70
